Experiment: Circular dichroism secondary structure (Dichroweb), peptide only
Assay type: physicochemical
Settings: 20 °C
parameter measured: Peptide-only, Helix (%)

{"substance": "H-GLLDLLKLLLKLAGW-NH2 [Peptide 28H6]", "quantitative result": 63}
{"substance": "H-GLDDLLKALLKAAGW-NH2 [Peptide 4H9]", "quantitative result": 63}
{"substance": "H-GLADLAKLLLKLLGW-NH2 [Peptide 7F3]", "quantitative result": 75}
{"substance": "H-GLLDLLHLLLKAAGW-NH2 [Peptide K7H]", "quantitative result": 62}
{"substance": "H-GLDDLAKLLLKLAGW-NH2 [Peptide 25B2]", "quantitative result": 67}

---

Measured Peptide-POPC, Strand values are reported for all entries that follow.
Experiment: Circular dichroism secondary structure (Dichroweb), with POPC
Format: physicochemical
Conditions: 45 °C
No end group written: not given here.

{"substance": "H-GLDDLAKLLLKLAGW-NH2 [Peptide 25B2]", "quantity unit": "%", "Peptide-POPC, Strand": 1}
{"substance": "GLLDDAKLLAKLAGW-AMIDE (GLLDDAKLLAKLAGW-NH2) [Peptide 7D12]", "quantity unit": "%", "Peptide-POPC, Strand": 21}
{"substance": "H-GLLDAAKLLAKAAGW-NH2 [Peptide 24F1]", "quantity unit": "%", "Peptide-POPC, Strand": 16}

---

Assay: Hemolysis assay
Type: cell-based, human
Conditions: human; peptide concentration lysing 50% of red blood cells, estimated using polynomial regression; read-out: Hemolysis Assay LC50

{"substance": "H-GLDDLLKALLKAAGW-NH2 [Peptide 4H9]", "HC50 at 1 hr": "56.6 µM"}

---

Experiment: Circular dichroism secondary structure (Dichroweb), with POPC
Assay type: physicochemical
Conditions: 95 °C
Measured Peptide-POPC, Helix values are reported for all entries that follow.
parameter measured: Peptide-POPC, Helix (%)

{"substance": "H-GLLDLLKLLLKLAGW-NH2 [Peptide 28H6]", "quantity unit": "%", "quantitative result": 65}
{"substance": "H-GLLDLLHLLLKAAGW-NH2 [Peptide K7H]", "quantity unit": "%", "quantitative result": 72}
{"substance": "H-GLLDAAKLLAKAAGW-NH2 [Peptide 24F1]", "quantity unit": "%", "quantitative result": 24}
{"substance": "H-GLLDLPKALAKALGW-NH2 [Peptide 7G6]", "quantity unit": "%", "quantitative result": 30}
{"substance": "H-GLADLAKLLLKLLGW-NH2 [Peptide 7F3]", "quantity unit": "%", "quantitative result": 70}
{"substance": "H-GLADAAKLLLKAAGW-NH2 [Peptide 11D12]", "quantity unit": "%", "quantitative result": 33}

---

Experiment: Circular dichroism secondary structure (Dichroweb), with POPG
Format: physicochemical
Conditions: 45 °C
No end group written: not given here.

{"substance": "H-GLADLAKLLLKLLGW-NH2 [Peptide 7F3]", "Peptide-POPG, Strand": "7%"}
{"substance": "H-GLLDAAKLLAKAAGW-NH2 [Peptide 24F1]", "Peptide-POPG, Strand": "1%"}
{"substance": "H-GLDDLLKALLKAAGW-NH2 [Peptide 4H9]", "Peptide-POPG, Strand": "0%"}
{"substance": "H-GLDDLAKLLLKLAGW-NH2 [Peptide 25B2]", "Peptide-POPG, Strand": "0%"}
{"substance": "GLLDDAKLLAKLAGW-AMIDE (GLLDDAKLLAKLAGW-NH2) [Peptide 7D12]", "Peptide-POPG, Strand": "3%"}
{"substance": "H-GLLDLLHLLLKAAGW-NH2 [Peptide K7H]", "Peptide-POPG, Strand": "8%"}
{"substance": "H-GLLDLPKALAKALGW-NH2 [Peptide 7G6]", "Peptide-POPG, Strand": "2%"}
{"substance": "H-GLADAAKLLLKAAGW-NH2 [Peptide 11D12]", "Peptide-POPG, Strand": "0%"}
{"substance": "H-GLLDLLKLLLKLAGW-NH2 [Peptide 28H6]", "Peptide-POPG, Strand": "29%"}

---

Assay: Hemolysis assay
Format: cell-based, human
Conditions: human
parameter measured: CC50 at 1 hr (nM)

{"substance": "H-GLLDLLHLLLKAAGW-NH2 [Peptide K7H]", "parameter measured": "CC50 at 1 hr", "quantity unit": "nM", "quantitative result": 2300}

---

Test: Circular dichroism secondary structure (Dichroweb), with POPG
Assay type: physicochemical
Details: 95 °C
No end group written: not given here.

{"substance": "H-GLLDLLKLLLKLAGW-NH2 [Peptide 28H6]", "quantity unit": "%", "Peptide-POPG, Helix": 55}
{"substance": "H-GLDDLAKLLLKLAGW-NH2 [Peptide 25B2]", "quantity unit": "%", "Peptide-POPG, Helix": 87}
{"substance": "H-GLADLAKLLLKLLGW-NH2 [Peptide 7F3]", "quantity unit": "%", "Peptide-POPG, Helix": 76}
{"substance": "H-GLDDLLKALLKAAGW-NH2 [Peptide 4H9]", "quantity unit": "%", "Peptide-POPG, Helix": 73}
{"substance": "H-GLLDAAKLLAKAAGW-NH2 [Peptide 24F1]", "quantity unit": "%", "Peptide-POPG, Helix": 66}
{"substance": "H-GLADAAKLLLKAAGW-NH2 [Peptide 11D12]", "quantity unit": "%", "Peptide-POPG, Helix": 77}
{"substance": "GLLDDAKLLAKLAGW-AMIDE (GLLDDAKLLAKLAGW-NH2) [Peptide 7D12]", "quantity unit": "%", "Peptide-POPG, Helix": 31}
{"substance": "H-GLLDLLHLLLKAAGW-NH2 [Peptide K7H]", "quantity unit": "%", "Peptide-POPG, Helix": 77}
{"substance": "H-GLLDLPKALAKALGW-NH2 [Peptide 7G6]", "quantity unit": "%", "Peptide-POPG, Helix": 75}

---

Measured Peptide-POPC, Strand values are reported for all entries that follow.
Assay: Circular dichroism secondary structure (Dichroweb), with POPC
Format: physicochemical
Conditions: 70 °C
No end group written: not given here.

{"substance": "H-GLLDAAKLLAKAAGW-NH2 [Peptide 24F1]", "Peptide-POPC, Strand": "17%"}
{"substance": "H-GLDDLLKALLKAAGW-NH2 [Peptide 4H9]", "Peptide-POPC, Strand": "4%"}
{"substance": "H-GLLDLLKLLLKLAGW-NH2 [Peptide 28H6]", "Peptide-POPC, Strand": "6%"}
{"substance": "GLLDDAKLLAKLAGW-AMIDE (GLLDDAKLLAKLAGW-NH2) [Peptide 7D12]", "Peptide-POPC, Strand": "22%"}
{"substance": "H-GLLDLPKALAKALGW-NH2 [Peptide 7G6]", "Peptide-POPC, Strand": "10%"}
{"substance": "H-GLADAAKLLLKAAGW-NH2 [Peptide 11D12]", "Peptide-POPC, Strand": "9%"}

---

Measured Peptide-POPC, Strand values are reported for all entries that follow.
Assay: Circular dichroism secondary structure (Dichroweb), with POPC
Format: physicochemical
Conditions: 20 °C
No end group written: not given here.
parameter measured: Peptide-POPC, Strand (%)

{"substance": "GLLDDAKLLAKLAGW-AMIDE (GLLDDAKLLAKLAGW-NH2) [Peptide 7D12]", "quantitative result": 20}
{"substance": "H-GLADLAKLLLKLLGW-NH2 [Peptide 7F3]", "quantitative result": 1}
{"substance": "H-GLADAAKLLLKAAGW-NH2 [Peptide 11D12]", "quantitative result": 12}
{"substance": "H-GLDDLLKALLKAAGW-NH2 [Peptide 4H9]", "quantitative result": 0}
{"substance": "H-GLLDLPKALAKALGW-NH2 [Peptide 7G6]", "quantitative result": 10}
{"substance": "H-GLLDLLHLLLKAAGW-NH2 [Peptide K7H]", "quantitative result": 5}
{"substance": "H-GLLDAAKLLAKAAGW-NH2 [Peptide 24F1]", "quantitative result": 16}
{"substance": "H-GLDDLAKLLLKLAGW-NH2 [Peptide 25B2]", "quantitative result": 3}
{"substance": "H-GLLDLLKLLLKLAGW-NH2 [Peptide 28H6]", "quantitative result": 10}

---

Assay: Circular dichroism secondary structure (Dichroweb), peptide only
Type: physicochemical
Details: 20 °C
No end group written: not given here.
Measured Peptide-only, Strand values are reported for all entries that follow.

{"substance": "H-GLADAAKLLLKAAGW-NH2 [Peptide 11D12]", "quantity unit": "%", "Peptide-only, Strand": 8}
{"substance": "GLLDDAKLLAKLAGW-AMIDE (GLLDDAKLLAKLAGW-NH2) [Peptide 7D12]", "quantity unit": "%", "Peptide-only, Strand": 11}
{"substance": "H-GLDDLLKALLKAAGW-NH2 [Peptide 4H9]", "quantity unit": "%", "Peptide-only, Strand": 2}
{"substance": "H-GLLDLLHLLLKAAGW-NH2 [Peptide K7H]", "quantity unit": "%", "Peptide-only, Strand": 4}
{"substance": "H-GLADLAKLLLKLLGW-NH2 [Peptide 7F3]", "quantity unit": "%", "Peptide-only, Strand": 4}
{"substance": "H-GLDDLAKLLLKLAGW-NH2 [Peptide 25B2]", "quantity unit": "%", "Peptide-only, Strand": 3}
